Molecular target: FLT3 ITD, F691L (Homo sapiens, UniProt P36888, F691L, form not given)
Construct: fused on or other part: DNA tag for qPCR detection (T7 phage fusion or DNA-tagged protein from HEK-293 cells)
Sequence (P36888 1-993 F691L): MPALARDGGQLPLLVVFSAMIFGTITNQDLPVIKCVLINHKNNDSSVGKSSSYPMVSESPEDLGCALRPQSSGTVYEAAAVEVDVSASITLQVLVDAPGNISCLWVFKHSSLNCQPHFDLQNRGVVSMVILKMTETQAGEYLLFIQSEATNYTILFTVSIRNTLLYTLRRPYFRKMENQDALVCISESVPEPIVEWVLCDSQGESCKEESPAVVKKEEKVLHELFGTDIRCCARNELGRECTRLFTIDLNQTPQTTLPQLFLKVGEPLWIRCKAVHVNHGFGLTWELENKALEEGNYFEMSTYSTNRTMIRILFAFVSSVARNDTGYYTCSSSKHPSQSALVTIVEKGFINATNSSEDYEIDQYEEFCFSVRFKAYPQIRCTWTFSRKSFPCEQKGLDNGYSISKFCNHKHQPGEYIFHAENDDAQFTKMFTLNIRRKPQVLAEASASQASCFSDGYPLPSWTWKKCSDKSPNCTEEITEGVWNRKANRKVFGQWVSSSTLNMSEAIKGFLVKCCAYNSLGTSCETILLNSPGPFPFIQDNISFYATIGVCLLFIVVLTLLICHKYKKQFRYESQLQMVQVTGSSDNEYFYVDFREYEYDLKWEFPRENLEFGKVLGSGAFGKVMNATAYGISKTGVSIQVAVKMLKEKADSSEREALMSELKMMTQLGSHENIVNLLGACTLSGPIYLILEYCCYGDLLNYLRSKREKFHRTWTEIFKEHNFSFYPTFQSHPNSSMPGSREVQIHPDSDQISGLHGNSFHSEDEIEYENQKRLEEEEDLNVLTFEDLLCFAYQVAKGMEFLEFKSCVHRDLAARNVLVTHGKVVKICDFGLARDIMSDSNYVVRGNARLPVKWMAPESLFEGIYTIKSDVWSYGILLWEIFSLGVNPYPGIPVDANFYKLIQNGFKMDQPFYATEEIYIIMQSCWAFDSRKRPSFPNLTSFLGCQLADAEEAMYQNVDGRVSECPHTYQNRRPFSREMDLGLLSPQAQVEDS
Assay: DiscoverX KINOMEscan competition binding, FLT3 ITD, F691L
pKd: −log10 of the molar value.
# label = Satisfied if pKd >= 10 else Not satisfied

Completed entries (count: 3):
>>> label_value("FC(F)c1cn2c(-c3cccc(N[C@H]4CNC[C@@H]4F)n3)cnc2cn1 [Compound 16]")
"Not satisfied"
>>> label_value("FC(F)(F)C1(c2cn3c(-c4cccc(N[C@@H]5CCNC5)n4)cnc3cn2)CC1 [Compound 10]")
"Not satisfied"
>>> label_value("FC(F)(F)COc1cn2c(-c3cccc(N[C@@H]4CCNC4)n3)cnc2cn1 [Compound 38]")
"Not satisfied"

Prompt: Check the entry CC1(c2cn3c(-c4cccc(N[C@H]5CNCC56CC6)n4)cnc3cn2)CC1 [Compound 5] : does pKd equal or exceed 10?
Response: Satisfied

* * *

Target: IRAK1 (Homo sapiens, UniProt P51617)
Sequence (P51617 whole entry): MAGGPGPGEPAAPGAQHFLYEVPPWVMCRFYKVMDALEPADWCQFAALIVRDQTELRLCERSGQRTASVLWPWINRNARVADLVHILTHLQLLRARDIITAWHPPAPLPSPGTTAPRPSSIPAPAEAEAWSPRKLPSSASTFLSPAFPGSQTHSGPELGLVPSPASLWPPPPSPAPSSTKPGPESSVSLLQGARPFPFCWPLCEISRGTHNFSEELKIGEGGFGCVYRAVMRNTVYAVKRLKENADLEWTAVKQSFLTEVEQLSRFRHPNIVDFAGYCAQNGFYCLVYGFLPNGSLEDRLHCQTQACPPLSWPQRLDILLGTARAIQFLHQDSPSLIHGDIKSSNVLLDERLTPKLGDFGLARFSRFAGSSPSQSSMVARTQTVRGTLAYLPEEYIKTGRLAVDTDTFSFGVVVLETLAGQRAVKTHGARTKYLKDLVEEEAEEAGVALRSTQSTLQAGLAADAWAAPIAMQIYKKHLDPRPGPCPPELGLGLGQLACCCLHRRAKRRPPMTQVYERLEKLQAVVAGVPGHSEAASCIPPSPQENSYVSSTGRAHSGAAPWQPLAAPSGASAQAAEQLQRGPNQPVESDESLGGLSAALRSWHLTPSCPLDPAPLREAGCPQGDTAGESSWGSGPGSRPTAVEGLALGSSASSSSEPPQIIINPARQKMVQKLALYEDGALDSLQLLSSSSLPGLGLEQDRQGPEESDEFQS
Test: RBC HotSpot Kinase Assay, IRAK1
Settings: isolated kinase, 33P-ATP
readout kind: IC50 (nM)
The figure you give is taken to be in nM; do not add the unit.

>>> numeric_readout("F[C@H]1CNC[C@@H]1Nc1cccc(-c2cnc3cnc(OCC(F)(F)F)cn23)n1")
190
>>> numeric_readout("O=S1(=O)CCCN1c1cn2c(-c3cccc(N[C@H]4CNCC[C@@H]4F)n3)cnc2cn1")
53
>>> numeric_readout("CC(C)(O)c1cn2c(-c3cccc(N[C@H]4CNC[C@@H]4F)n3)cnc2cn1")
220
>>> numeric_readout("Cn1cc(-c2cn3c(-c4cccc(N[C@@H]5CCCNC5)n4)cnc3cn2)cn1")
895
>>> numeric_readout("O=S1(=O)CCCCN1c1cn2c(-c3nc(N[C@H]4CNCC[C@@H]4F)c(F)cc3F)cnc2cn1")
265

Prompt: Return reported IC50; argument: CC(O)(c1cn2c(-c3cccc(N[C@@H]4CCCNC4)n3)cnc2cn1)C(F)(F)F (single isomer, unassigned)
Response: 31

Prompt: Next up: "C[C@H]1CNC[C@@H]1Nc1cccc(-c2cnc3cnc(C4(C(F)(F)F)CC4)cn23)n1"
Response: 301

Prompt: // same read-out, input: "CC1(c2cn3c(-c4cccc(N[C@H]5CNCC56CC6)n4)cnc3cn2)CC1"
Response: 114

Prompt: Same question for "CC(C)Oc1cn2c(-c3cccc(N[C@H]4CNCC[C@@H]4F)n3)cnc2cn1" please.
Response: 144

Prompt: Okay, and "C[C@H]1C[C@@H](Nc2cccc(-c3cnc4cnc(OCC(F)(F)F)cn34)n2)CCN1" ?
Response: 413
